Test System: T1, recombinant human CD40 (ECD)-his (human, UniProt P25942 21-193)
T1 construct: Bought protein; also called hCD40(ECD)-his; TNFRSF5
T1 sequence (P25942 21-193): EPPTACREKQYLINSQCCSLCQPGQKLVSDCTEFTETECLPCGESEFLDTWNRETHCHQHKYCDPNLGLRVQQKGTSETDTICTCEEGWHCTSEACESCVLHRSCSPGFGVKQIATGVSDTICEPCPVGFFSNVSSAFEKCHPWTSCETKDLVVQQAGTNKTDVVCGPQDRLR
Assay Method Text: ELISA, hCD40(ECD)-his coated
Assign EC50 to each entry below.
Answer with a number only, understood to be in µg/mL.

Read off the recorded EC50 for 29A10 (mouse monoclonal antibody) (antibody, V domains shown) VH: QVKLEQSGGGLVKPGGSLKLSCAASGFTFSHYYMYWVRQTPEKRLEWVATISDAGSYTYYSDSVKGRFTISRDNAKNNLYLQMSSLKSDDTAMYFCARTYYRGDGGYWFFDVWGAGTAVTVSS VL: DIVITQSTSSLAVSVGEKVTMSCESSQSLLYSSNQKNYLAWYQQKPGQSPKLLIYWASTRESGVPDRFTASGSGTDFTLTISSVKAEDLAVYYCQQYYRSPLTFGAGTKLELK
0.0318

Read off the recorded EC50 for 50F6 (mouse monoclonal antibody) (antibody, V domains shown) VH: QVQLEQSGDDLVKPGASVKLSCKASGYTFTTYWINWIKQRPGQGLEWIGRISPGSGSTHYNEMFKGKATLTVDTSSSTAYIQLSSLSSEDSAVYFCTRNDYWGQGTTLTVSS VL: DIVLTQSPLSLPVSLGDQASISCRSSQSIVNSNGNTYLEWYLQKPGQSPKLLIYKVSNRFSGVPDRFSGSGSGTDFTLKISRVEAEDLGVYYCFQGSHVPLTFGAGTKLELK
0.0155

Read off the recorded EC50 for 13A2 (mouse monoclonal antibody) (antibody, V domains shown) VH: EVKLEQSGPGLVKPSQSLSLTCSVTGYSITTNYYWNWIRQFPGNKLEWMGYINYDGSNNYNPSLKNRISITRDTSKNQFFLKLNSVTTEDTATYYCARLDYWGQGTSVTVSS VL: DIVMTQSPLSLPVSLGDQASISCRSSQSLENSNGNTFLNWFLQKPGQSPQLLIYKVSNRFSGVLDRFSGTGSGTDFTLTISRVEAEDLGVYFCLQVTHVPFTFGSGTKLEIK
0.0207
